# pIC50 per entry
system.tested: H1047R PIK3CA enzyme (Homo sapiens, UniProt P42336, H1047R)
Sequence (P42336 whole entry H1047R): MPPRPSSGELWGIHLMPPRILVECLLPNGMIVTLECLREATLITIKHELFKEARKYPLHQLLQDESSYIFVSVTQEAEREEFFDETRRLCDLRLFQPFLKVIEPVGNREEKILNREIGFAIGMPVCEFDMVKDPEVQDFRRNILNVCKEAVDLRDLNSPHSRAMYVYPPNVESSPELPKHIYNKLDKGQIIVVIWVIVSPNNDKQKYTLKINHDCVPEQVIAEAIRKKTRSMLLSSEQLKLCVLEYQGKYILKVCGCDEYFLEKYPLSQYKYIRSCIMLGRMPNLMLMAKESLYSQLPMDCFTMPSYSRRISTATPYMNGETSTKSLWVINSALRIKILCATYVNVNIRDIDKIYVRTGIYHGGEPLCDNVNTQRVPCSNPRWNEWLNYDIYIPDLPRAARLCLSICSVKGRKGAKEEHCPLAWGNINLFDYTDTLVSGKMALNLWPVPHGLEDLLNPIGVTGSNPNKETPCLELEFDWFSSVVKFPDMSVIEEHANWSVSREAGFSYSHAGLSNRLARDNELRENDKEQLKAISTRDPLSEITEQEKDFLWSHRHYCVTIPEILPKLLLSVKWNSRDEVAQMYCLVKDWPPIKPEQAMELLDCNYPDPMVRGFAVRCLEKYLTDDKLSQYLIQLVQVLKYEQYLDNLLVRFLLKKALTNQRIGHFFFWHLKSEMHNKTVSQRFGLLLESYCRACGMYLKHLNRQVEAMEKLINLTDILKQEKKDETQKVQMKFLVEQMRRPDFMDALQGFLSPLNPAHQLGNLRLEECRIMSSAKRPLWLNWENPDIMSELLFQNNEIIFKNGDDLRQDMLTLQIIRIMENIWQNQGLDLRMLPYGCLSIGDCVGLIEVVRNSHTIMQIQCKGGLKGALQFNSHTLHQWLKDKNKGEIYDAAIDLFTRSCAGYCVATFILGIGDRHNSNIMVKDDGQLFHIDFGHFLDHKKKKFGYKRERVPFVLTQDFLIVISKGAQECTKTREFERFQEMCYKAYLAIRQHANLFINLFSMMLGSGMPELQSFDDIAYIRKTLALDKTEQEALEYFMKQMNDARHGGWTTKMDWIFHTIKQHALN
Sequence (P27986 whole entry partner): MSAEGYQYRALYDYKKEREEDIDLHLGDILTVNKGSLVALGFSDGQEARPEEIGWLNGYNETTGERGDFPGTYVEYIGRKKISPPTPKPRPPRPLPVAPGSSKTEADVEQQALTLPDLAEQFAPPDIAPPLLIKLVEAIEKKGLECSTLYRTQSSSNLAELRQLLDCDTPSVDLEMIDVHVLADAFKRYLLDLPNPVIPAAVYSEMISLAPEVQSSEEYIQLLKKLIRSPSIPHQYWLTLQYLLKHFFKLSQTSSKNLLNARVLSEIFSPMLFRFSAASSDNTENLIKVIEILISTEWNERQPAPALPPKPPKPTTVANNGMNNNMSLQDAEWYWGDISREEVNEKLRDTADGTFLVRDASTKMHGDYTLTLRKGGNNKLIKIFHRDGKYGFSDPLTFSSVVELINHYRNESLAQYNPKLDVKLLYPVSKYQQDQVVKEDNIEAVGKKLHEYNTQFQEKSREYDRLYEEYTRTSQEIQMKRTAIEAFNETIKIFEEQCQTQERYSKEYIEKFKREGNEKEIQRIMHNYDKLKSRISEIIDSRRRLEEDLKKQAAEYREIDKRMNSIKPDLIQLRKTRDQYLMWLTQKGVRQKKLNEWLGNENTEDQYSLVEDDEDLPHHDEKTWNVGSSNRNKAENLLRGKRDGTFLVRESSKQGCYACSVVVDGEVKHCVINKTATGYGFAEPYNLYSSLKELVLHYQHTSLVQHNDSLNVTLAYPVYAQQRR
method: ADP-Glo Biochemical PIK3CA Kinase Assay
pIC50: −log10 of the molar value.

Use the examples below as a reference point.
| given.smiles | result |
| --- | --- |
| Cc1ccccc1Nc1ncc(C(=O)NCCS(C)(=O)=O)cc1NC(=O)c1cc(F)cc(C(F)(F)F)c1 | 6.30 to 7.00 |
| Cc1ccccc1Nc1ncc(C#N)cc1NC(=O)c1cc(F)cc(C(F)(F)F)c1 | 5.00 to 6.00 |
| Cc1ccccc1Nc1ncc(C(=O)Nc2ccncc2)cc1NC(=O)c1cc(F)cc(C(F)(F)F)c1 | 6.30 to 7.00 |

Form entry - test system: H1047R PIK3CA enzyme (Homo sapiens, UniProt P42336, H1047R); read-out: pIC50; compound: CNC(=O)c1cnc(Nc2cccc(Cl)c2)c(NC(=O)c2cc(F)cc(C(F)(F)F)c2)c1 5.00 to 6.00
